assay: physchem; settings: aqueous with cosolvent or surfactant or cyclodextrin, thermodynamic from solid, Estradiol and Testosterone solubility, both steroids together in aqueous HPβCD 190 mg/mL
Measured parameter: solubility (mg/mL)
Numbers only here, please. The scale is mg/mL.

Item C[C@]12CC[C@H]3[C@@H](CCC4=CC(=O)CC[C@@]43C)[C@@H]1CC[C@@H]2O has what recorded solubility?
15.7

* * *

assay: physchem; settings: aqueous with cosolvent or surfactant or cyclodextrin, thermodynamic from solid, Estradiol and Testosterone solubility, both steroids together in aqueous HPβCD 70 mg/mL
Measured parameter: solubility (µg/mL)
Numbers only here, please. The scale is µg/mL.

Item C[C@]12CC[C@H]3[C@@H](CCC4=CC(=O)CC[C@@]43C)[C@@H]1CC[C@@H]2O has what recorded solubility?
5070
